List of growth inhibition values.
# ASSAY NOTES: E. coli ΔtolC antibacterial growth inhibition – strain BW25113 ΔtolC::kan, 384-well, primary screen (AID 573);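 also: growth measured after 20 h incubation at 37 °C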
# CONDITION: E. coli BW25113 tolC mutant growth, OD615; stronger effect = higher value; concentration not given here
Hit rate of the full screen: of about 65,000 compounds, about 1,400 (2.2%) were called active. Only a selection was taken, and actives are over-represented in it overall.
# number only, unit % dropped from output

CCCC(C)n1[nH]c(=O)c2c1NC(=O)CSC2c1ccc(OC)c(OC)c1 (stereo not drawn)	-7.28

Record request: growth inhibition value, item "C=Cn1ccnc1P(=S)(c1cc(N(CC)CC)ns1)c1nccn1C=C"
8.14

Record request: growth inhibition value, item "C/C(CCc1c[nH]c2ccccc12)=N\O"
-11.1

* * *

# ASSAY NOTES: E. coli ΔtolC antibacterial growth inhibition – strain BW25113 ΔtolC::kan, 384-well, primary screen (AID 573);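 also: growth measured after 20 h incubation at 37 °C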
# CONDITION: E. coli BW25113 tolC mutant growth, OD615; stronger effect = higher value; concentration not given here
About 1,400 (2.2%) of roughly 65,000 compounds were called active. This is one part of a sample in which actives are shown more often than they occur.
TEST READOUT: growth inhibition (%)
# number only, unit % dropped from output

Some compounds with recorded growth inhibition:
CCOC(=O)c1c(-c2ccccc2)oc2ccc(OC(=O)N(C)C)cc12	96.5
CCC(=NCCCO)c1c(O)n(-c2ccc(OC)cc2)c(=O)[nH]c1=O	-12.6
CCCCCCN=C(CC)c1c(O)n(CCCC)c(=O)[nH]c1=O	90.2
CCC(=NCc1ccco1)c1c(O)n(Cc2ccccc2)c(=O)[nH]c1=O	7.19

Record request: growth inhibition value, item "Cn1c(C(=O)N2CCC(C(=O)N3CCC4(CC3)OCCO4)CC2)cc2sccc21"
3.04

Entry source: PubChem BioAssay AID573
